Values were extracted from ChEMBL document CHEMBL1145636.

assay: Volume of distribution at steady state in Beagle dog at 0.8 mg/kg, iv or 5 mg/kg, po; type: ADME, organism-based, Canis lupus familiaris; details: in vivo, read-out: Vdss

[
  {
    "item smiles": "Cn1cnc(-c2cc3nccc(Oc4ccc(NC(=S)NC(=O)Cc5ccccc5)cc4F)c3s2)c1",
    "Vd [L/kg]": 1.5
  }
]

* * *

assay: Volume of distribution at steady state in Sprague-Dawley rat; type: ADME, organism-based; conditions: in vivo, read-out: Vdss

[
  {
    "item smiles": "Cn1cnc(-c2cc3nccc(Oc4ccc(NC(=S)NC(=O)Cc5ccccc5)cc4F)c3s2)c1",
    "Vd": "0.25 L/kg"
  }
]
